Biological target: T1, IL-18 binding protein (IL-18BP) (UniProt O95998 31-194)
T1 sequence (looked up): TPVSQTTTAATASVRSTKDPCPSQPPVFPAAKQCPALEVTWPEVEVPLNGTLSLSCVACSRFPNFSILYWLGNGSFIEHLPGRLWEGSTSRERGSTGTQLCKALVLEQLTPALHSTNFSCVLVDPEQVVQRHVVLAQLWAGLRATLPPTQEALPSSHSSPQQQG
Assay: cell-based or functional assay
Activity, +100 nM BP, DF-5000003 below 0.1 gives 0 (no); Activity, +100 nM BP, DF-5000003 at or above it gives 1 (yes).

- binder: "IL-18 variant G3P, E6S, K53R, D54Y, S55P, T63I, N91K (ligand) YFPKLSSKLSVIRNLNDQVLFIDQGNRPLFEDMTDSDMRDNAPRTIFIISMYRYPQPRGMAVIISVKSEKISTLSSENKIISFKEMNPPDKIKDTKSDIIFFQRSVPGHDNKMQFESSSYEGYFLASEKERDLFKLILKKEDELGDRSIMFTVQNED"
  label class: "0 (no)"
- binder: "IL-18 variant N91S, R104H (ligand) YFGKLESKLSVIRNLNDQVLFIDQGNRPLFEDMTDSDMRDNAPRTIFIISMYKDSQPRGMAVTISVKSEKISTLSSENKIISFKEMNPPDSIKDTKSDIIFFQHSVPGHDNKMQFESSSYEGYFLASEKERDLFKLILKKEDELGDRSIMFTVQNED"
  label class: "0 (no)"
- binder: "IL-18 variant G3Q, E6K, D54S, S55P, T63S, N91S, R104Q (ligand) YFQKLKSKLSVIRNLNDQVLFIDQGNRPLFEDMTDSDMRDNAPRTIFIISMYKSPQPRGMAVSISVKSEKISTLSSENKIISFKEMNPPDSIKDTKSDIIFFQQSVPGHDNKMQFESSSYEGYFLASEKERDLFKLILKKEDELGDRSIMFTVQNED"
  label class: "1 (yes)"
- binder: "IL-18 variant G3Q, E6N, D54Y, S55P, T63S, N91S, R104H (ligand) YFQKLNSKLSVIRNLNDQVLFIDQGNRPLFEDMTDSDMRDNAPRTIFIISMYKYPQPRGMAVSISVKSEKISTLSSENKIISFKEMNPPDSIKDTKSDIIFFQHSVPGHDNKMQFESSSYEGYFLASEKERDLFKLILKKEDELGDRSIMFTVQNED"
  label class: "1 (yes)"
- binder: "IL-18 variant G3Q, E6D, K53S, D54I, S55E, T63S, N91S, R104Q (ligand) YFQKLDSKLSVIRNLNDQVLFIDQGNRPLFEDMTDSDMRDNAPRTIFIISMYSIEQPRGMAVSISVKSEKISTLSSENKIISFKEMNPPDSIKDTKSDIIFFQQSVPGHDNKMQFESSSYEGYFLASEKERDLFKLILKKEDELGDRSIMFTVQNED"
  label class: "0 (no)"
- binder: "IL-18 variant G3P, E6K, D54Y, S55P, T63S, N91S, R104Q (ligand) YFPKLKSKLSVIRNLNDQVLFIDQGNRPLFEDMTDSDMRDNAPRTIFIISMYKYPQPRGMAVSISVKSEKISTLSSENKIISFKEMNPPDSIKDTKSDIIFFQQSVPGHDNKMQFESSSYEGYFLASEKERDLFKLILKKEDELGDRSIMFTVQNED"
  label class: "1 (yes)"
- binder: "IL-18 variant G3N, E6S, K53Q, D54W, S55R, N91T, R104T (ligand) YFNKLSSKLSVIRNLNDQVLFIDQGNRPLFEDMTDSDMRDNAPRTIFIISMYQWRQPRGMAVTISVKSEKISTLSSENKIISFKEMNPPDTIKDTKSDIIFFQTSVPGHDNKMQFESSSYEGYFLASEKERDLFKLILKKEDELGDRSIMFTVQNED"
  label class: "1 (yes)"
